B1: KRT18 (parent)
chain: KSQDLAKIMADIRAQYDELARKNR

variants of: B1; assay: protein stability index of a GFP-peptide fusion (GPS, HEK-293T) (PSI 1-6); higher = more stable; settings: c terminus: a fixed tail appended;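 note: lentivirally expressed fusions sorted by FACS into six bins by GFP to DsRed ratio, PSI derived from sequencing read proportions per bin multiplied by bin number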
PROPERTY NAME: protein stability index
No unit in the answer, please; the number alone is enough.

Example entries and their recorded answers appear below.
Looking up I12R , I see its protein stability index listed as 3.74

The variant identified as Q15Y registered its protein stability index at 2.16

Summary for this variant, L19I : protein stability index is 3.12

Further cases:
L5A has a reported protein stability index of 3.72

Short answer for R21H : protein stability index was 3.26

Reported protein stability index of S2Y : 2.04
